Tested on: OVCAR-3 ovarian
Assay: NCI tumour cell line growth inhibition, 48 h
A collection of molecules and their measured TGI
Assay metric: TGI

{"Chemical smiles": "Cc1[nH]c(=O)nc(Nc2ccc(Cl)cc2)c1C(=O)N1CCN(CCO)CC1", "Reported": "> 100 µM"}
{"Chemical smiles": "Cc1ccc(-c2csc(NC(=O)N3CCN(c4cc5c(cc4F)c(=O)c(C(=O)O)cn5C4CC4)CC3)n2)cc1", "Reported": "18.7 µM"}
{"Chemical smiles": "CC(=O)Oc1ccc2c3c1O[C@H]1[C@H](O)CC[C@@]4(O)[C@@H](C2)N(C)CC[C@]314", "Reported": "> 100 µM"}
{"Chemical smiles": "O=c1cc(-c2ccccc2)[nH]c2nccn12", "Reported": "> 10 µM"}
{"Chemical smiles": "COc1ccc(CC2(Cc3ccc(OC)cc3)CCOC2=O)cc1", "Reported": "> 100 µM"}

====

A collection of compounds and their measured TGI
System: SR leukemia
Assay: NCI tumour cell line growth inhibition, 48 h
Assay metric: TGI

{"Compound": "COc1ccc(CC2(Cc3ccc(OC)cc3)CCOC2=O)cc1", "Assayed target": "SR leukemia", "Assay metric": "TGI", "Reported": "> 100 µM"}
{"Compound": "c1ccc(CSC2(SCc3ccccc3)CCCCC2)cc1", "Assayed target": "SR leukemia", "Assay metric": "TGI", "Reported": "> 10 µM"}
{"Compound": "O=C(O)c1nc(-c2ccc(Cl)c(Cl)c2)nc2ccc(Cl)cc12", "Assayed target": "SR leukemia", "Assay metric": "TGI", "Reported": "> 100 µM"}
{"Compound": "CNC1(C(=O)O)CC1", "Assayed target": "SR leukemia", "Assay metric": "TGI", "Reported": "> 100 µM"}
{"Compound": "CN(C)Cc1cc(N=Nc2ccc(Cl)cc2)cc(CN(C)C)c1O", "Assayed target": "SR leukemia", "Assay metric": "TGI", "Reported": "22.8 µM"}
{"Compound": "CC(C)CCNCC(O)Cn1c2ccccc2c2ccccc21 (configuration not stated)", "Assayed target": "SR leukemia", "Assay metric": "TGI", "Reported": "6.38 µM"}
{"Compound": "COC(=N)c1c(N)[n+]([O-])c2ccc(F)cc2[n+]1[O-]", "Assayed target": "SR leukemia", "Assay metric": "TGI", "Reported": "> 100 µM"}
{"Compound": "Cc1[nH]c(=O)nc(NNCc2ccc(Cl)cc2)c1C(=O)Nc1ccc(Cl)cc1", "Assayed target": "SR leukemia", "Assay metric": "TGI", "Reported": "> 100 µM"}
{"Compound": "N#CNC(=NCCc1c[nH]c2ccccc12)Oc1ccccc1", "Assayed target": "SR leukemia", "Assay metric": "TGI", "Reported": "> 100 µM"}
{"Compound": "COC(=O)CC1c2ccccc2N2C(=O)Cc3c([nH]c4ccccc34)C12 (configuration not stated)", "Assayed target": "SR leukemia", "Assay metric": "TGI", "Reported": "> 100 µM"}
{"Compound": "C#CCNCCN1C(=O)c2ccc3c4c(ccc(c24)C1=O)C(=O)N(CCNCC#C)C3=O", "Assayed target": "SR leukemia", "Assay metric": "TGI", "Reported": "29.8 µM"}
{"Compound": "COc1ccc(C2=C(c3ccc(OC)c(OC)c3)C(=O)N3CCCC3C2)cc1 (configuration not stated)", "Assayed target": "SR leukemia", "Assay metric": "TGI", "Reported": "12.8 µM"}
{"Compound": "CC(=O)[O][Sn]([CH2]c1ccccc1)([CH2]c1ccccc1)[CH2]c1ccccc1", "Assayed target": "SR leukemia", "Assay metric": "TGI", "Reported": "> 4.64 µM"}
{"Compound": "COc1cc2c(cc1OC)[C@@H](Nc1ccc(F)cc1)C1COC(=O)[C@@H]1C2c1cc(OC)c(O)c(OC)c1 (some centres not stated)", "Assayed target": "SR leukemia", "Assay metric": "TGI", "Reported": "0.282 µM"}
{"Compound": "NC(=O)c1ccc(-c2nc(-c3ccc4c(c3)OCO4)c(-c3ccccn3)[nH]2)cc1", "Assayed target": "SR leukemia", "Assay metric": "TGI", "Reported": "> 100 µM"}
{"Compound": "COc1ccccc1CNCCCN1C(=O)c2ccc3c4c(ccc(c24)C1=O)C(=O)N(CCCN)C3=O", "Assayed target": "SR leukemia", "Assay metric": "TGI", "Reported": "1.36 µM"}
{"Compound": "O=C(N/N=C/c1ccccc1)c1cccc2nc3ccccc3nc12", "Assayed target": "SR leukemia", "Assay metric": "TGI", "Reported": "> 100 µM"}
{"Compound": "Cn1cccc1-c1cc(-c2ccc(Br)cc2)[nH]c(=O)c1C#N", "Assayed target": "SR leukemia", "Assay metric": "TGI", "Reported": "> 100 µM"}
{"Compound": "O=C(CC(Cl)=C(Cl)Cl)c1ccccc1", "Assayed target": "SR leukemia", "Assay metric": "TGI", "Reported": "43.7 µM"}
{"Compound": "CCOC(=O)/C=C(/C)Nc1nc2c(c(C(=O)OC)c1C#N)CCCC2", "Assayed target": "SR leukemia", "Assay metric": "TGI", "Reported": "> 100 µM"}
{"Compound": "CCN(CC)c1oc(N(CC)CC)c(C(=O)Nc2ccccn2)c(=O)c1C(C)=O", "Assayed target": "SR leukemia", "Assay metric": "TGI", "Reported": "> 100 µM"}
{"Compound": "CCOC1CC(C)N(C(=O)c2ccccc2)O1 (configuration not stated)", "Assayed target": "SR leukemia", "Assay metric": "TGI", "Reported": "> 100 µM"}
